- Tested on: SK-MEL-28
- experiment description: NCI tumour cell line growth inhibition, 48 h
The source made the active and inactive calls. Rule as the data show it: active = GI50 up to about 1.1 µM and inactive = higher. Square brackets hold non-standard residues; d marks the D form. Residues, ends and D or L forms follow the SMILES beside them. Peptide text beside a SMILES is read from it. * marks the point of attachment. ξ: configuration not given here. *: point of attachment. X38 = O=C(c1ccc(-c2ccc(Cl)cc2Cl)o1)*; NMeY = CN[C@@H](Cc1ccc(O)cc1)C(=O)O; Cbz = O=C(OCc1ccccc1)*; ξA = CC(N)C(=O)O
Labels: True for active, False for inactive

# molecule, answer label
data = [
    ("Cn1c(Sc2ccc(-c3cccnc3)n2C)ccc1-c1cccnc1", "False"),
    ("C[C@H]1C(=O)O[C@@H]1[C@H]1COC(C)(C)O1", "False"),
    ("CC(=O)c1ccc2c(c1)C(=O)c1sc(C(C)=O)cc1C2=O", "False"),
    ("O=C1c2c(ccc3c2CCCC3)CC12Cc1ccc3c(c1C2=O)CCCC3", "False"),
    ("Cc1cc(N(CCC#N)CCC#N)ccc1/N=N/c1ccc(S(N)(=O)=O)cc1", "False"),
    ("COc1ccc(C[C@@H](C(=O)N[C@@H](C)C(N)=O)N(C)C(=O)[C@@H]2CCCN2C(=O)[C@H](CC(C)C)NC(=O)C(C)NC(=O)OCc2ccccc2)cc1 (stereo partly drawn) (Cbz-[ξA]LP[NMeY](Me)A-NH2)", "False"),
    ("CCCC[P+](CCCC)(CCCC)C(C(=O)OC)C(C(=O)OC)=C1SC(C(=O)OC)=C(C(=O)OC)S1 (stereo not drawn)", "False"),
    ("Nc1nc(N)c2nc(CNc3ccc(C(=O)NC(CCNC(=O)c4ccccc4C(=O)O)C(=O)O)cc3)cnc2n1 (stereo not drawn)", "False"),
    ("CC(=O)OC1CCC2(C)C(CCC3C2CCC2(C)C(c4ccc(=O)oc4)C(OC(C)=O)CC32O)C1 (stereo not drawn)", "True"),
    ("COC(=O)C(CC(C)C)NC(=O)C(Cc1ccccc1)NC(=O)C1CCCN1C(=O)C(CO)NC(=O)c1ccc(-c2ccc(Cl)cc2Cl)o1 (stereo not drawn) (X38-SPFL-OMe; configuration not given here)", "False"),
    ("O=C(/C=C/c1ccco1)CC(=O)/C=C/c1ccco1", "False"),
    ("Cc1ccc(S(=O)(=O)OCOS(=O)(=O)c2ccc(C)cc2)cc1", "False"),
    ("Cc1ccc(S(=O)(=O)N/N=C/c2oc(-c3ccncc3)c(-c3ccncc3)c2[N+](=O)[O-])cc1", "False"),
    ("COc1ccc2c(CCN)c(C(=O)O)[nH]c2c1", "False"),
    ("CCOC(=O)NC(=O)c1cn(CCOCCOC(=O)NCCCCCCNC(=O)OCCOCCn2cc(C(=O)NC(=O)OCC)c(=O)[nH]c2=O)c(=O)[nH]c1=O", "False"),
    ("CC(=O)Oc1cc2c(c3ncccc13)OC(C)(C)C2", "False"),
    ("CCN(CCCl)c1cc(CN(C)C)cc(NC(=O)C23CCC(C(=O)Nc4cc(CN(C)C)cc(N(CC)CCCl)c4)(CC2)CC3)c1", "False"),
    ("CCCCCC(=O)N[C@H]1CCc2cc(OC)c(OC)c(OC)c2-c2ccc(SC)c(=O)cc21", "True"),
]
